experiment: Peptide stability assay: stability of K5 in human plasma (HPLC/MS of free intact peptide); type: in vitro ADME; set-up: dose or concentration left out as unconfirmed; details: 4 hrs; 37° C. in human plasma
measured_property: remaining at 4 h (%)
Supply the numeric figure in %, leaving out any unit text.

Q. Complete the entry with remaining at 4 h for H-PRKLYDK-NH2 [Example K5, Pro-Arg-Lys-Leu-Tyr-Asp-Lys-NH2]
A. 9
